target: IRAK4 (Homo sapiens, UniProt Q9NWZ3); experiment: OCI-LY-10 degradation assay (western blot, % IRAK4 degraded after 4 hours); format: cell-based; parameters: endogenous in cells; host or cells: OCI-LY10; details: OCI-LY10 cells, IRAK4 degraded after 4 hours, western blot

compound	OCI-LY10 % IRAK4 Degradation
NC(=O)c1nn(-c2ccc(C(=O)NCCOCCOCCNc3cccc4c3C(=O)N(C3CCC(=O)NC3=O)C4=O)nc2)cc1NC(=O)c1coc(-c2ccnc(NCC(F)(F)F)c2)n1 (stereo not drawn) [I-143]	B (>20-50% degradation)
CC(OCCNc1cccc2c1C(=O)N(C1CCC(=O)NC1=O)C2=O)C(F)CNC(=O)c1cnc(Nc2ccc3cnccc3n2)cc1NC1CC1 (stereo not drawn) [I-77]	C (<20% degradation)
NC(=O)c1nn(-c2ccc(C(=O)NCCOCCOCCOCCOCCCc3ccc4c(c3)C(=O)N(C3CCC(=O)NC3=O)C4=O)cc2)cc1NC(=O)c1coc(-c2ccnc(NCC(F)(F)F)c2)n1 (stereo not drawn) [I-148]	B (>20-50% degradation)
NC(=O)c1nn(C2CCC(C(=O)NCCOCCOCCNc3cccc4c3C(=O)N(C3CCC(=O)NC3=O)C4=O)CC2)cc1NC(=O)c1coc(-c2ccnc(NCC(F)(F)F)c2)n1 (stereo not drawn) [I-139]	B (>20-50% degradation)
CC(OCCOCCOCCNc1cccc2c1C(=O)N(C1CCC(=O)NC1=O)C2=O)C(F)CNC(=O)c1cnc(-n2ncc3cc(C#N)cnc32)cc1NC1CC1 (stereo not drawn) [I-63]	C (<20% degradation)
CC(COCC(F)CNC(=O)c1cnc(Nc2ccc3cnccc3n2)cc1NC1CC1)OCCOCCNc1cccc2c1C(=O)N(C1CCC(=O)NC1=O)C2=O (stereo not drawn) [I-70]	C (<20% degradation)

###

experiment: Pharmacokinetics in CD-1 mice (plasma concentrations, PK parameters); type: in vivo; conditions: CD-1, mouse, plasma, iv, 2 mg/kg, mouse (CD1) iv 2 mg/kg; 24.0 h; individual M01-M03; read-out: concentrations
assay-endpoint: concentration at 24 h (ng/mL)

compound	assay-endpoint	reported-result
NC(=O)c1nn(-c2ccc(C(=O)NCCOCCOCCNc3cccc4c3C(=O)N(C3CCC(=O)NC3=O)C4=O)cc2)cc1NC(=O)c1coc(-c2ccnc(NCC(F)(F)F)c2)n1 (stereo not shown) [I-127]	concentration at 24 h	2.2

###

test: Pharmacokinetics in Sprague Dawley rats (plasma and brain concentrations, PK parameters); format: in vivo; conditions: Sprague-Dawley, rat, plasma, iv, 3 mg/kg, Sprague Dawley rat, iv 3 mg/kg, plasma, 24 h, Rat 1; read-out: Concentration Rat 1
assay-endpoint: concentration at 24 h (ng/mL)

compound	reported-result
O=C1CCC(N2C(=O)c3cccc(NCCOCCOCCNCc4ccc(-n5cc(NC(=O)c6coc(-c7ccnc(NCC8CC8)c7)n6)c(C(F)F)n5)cc4)c3C2=O)C(=O)N1 (stereo not shown)	0.454

###

Target: IRAK4 (Homo sapiens)
Sequence (Q9NWZ3 1-460): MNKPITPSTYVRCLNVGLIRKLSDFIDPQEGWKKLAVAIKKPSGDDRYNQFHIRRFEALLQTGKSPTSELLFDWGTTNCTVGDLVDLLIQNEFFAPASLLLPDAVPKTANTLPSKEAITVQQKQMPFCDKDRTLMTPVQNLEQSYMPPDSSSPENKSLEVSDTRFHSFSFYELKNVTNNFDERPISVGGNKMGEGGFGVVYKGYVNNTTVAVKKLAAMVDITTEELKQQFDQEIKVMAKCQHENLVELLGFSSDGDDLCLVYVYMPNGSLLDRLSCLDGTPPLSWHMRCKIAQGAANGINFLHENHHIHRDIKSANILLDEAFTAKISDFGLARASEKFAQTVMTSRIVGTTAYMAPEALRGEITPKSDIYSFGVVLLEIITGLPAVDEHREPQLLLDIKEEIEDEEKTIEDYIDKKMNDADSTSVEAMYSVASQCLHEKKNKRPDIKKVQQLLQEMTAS
Test: OCI-LY-10 degradation assay (western blot, % IRAK4 degraded after 4 hours)
Type: cell-based
Design: endogenous in cells; host or cells: OCI-LY10
Conditions: OCI-LY10 cells, 4 hours, 0.1 uM compound
Procedure: Compounds were reconstituted in DMSO to make stock solutions at concentration of 60 mM. THP-1 and OCI-LY10 cells were maintained in RPMI-1640 medium containing 10% FBS, 0.5 μM 2-ME or 20% FBS, 55 μM 2-ME, and 1% L-Glutamine respectively. […] The protein concentration of cell lysates was quantified with Pierce™ BCA Protein Assay Kit (Pierce, 23227). […] After incubation at 37° C. for 30 min, the absorbance of samples at 562 nm were measured with EnVision Plate Reader. […]

compound	OCI-LY10 % IRAK4 Degradation (0.1 uM)
O=C1CCC(N2C(=O)c3ccc(OCCc4cnnn4CCOCCOCCNCc4ccc(-n5cc(NC(=O)c6coc(-c7ccnc(NCC8CC8)c7)n6)c(C(F)F)n5)cc4)cc3C2=O)C(=O)N1 (centres unmarked)	A (>50% degradation)
O=C1CCC(N2C(=O)c3cccc(CNCc4ccc(-n5cc(NC(=O)c6coc(-c7ccncc7)n6)c(C(F)F)n5)cc4)c3C2=O)C(=O)N1 (centres unmarked)	C (<20% degradation)
CN(CCOCCOCCCc1cccc2c1C(=O)N(C1CCC(=O)NC1=O)C2=O)C(=O)c1ccc(-n2cc(NC(=O)c3coc(-c4ccnc(NCC5CC5)c4)n3)c(C(F)F)n2)cc1 (centres unmarked)	A (>50% degradation)
NCc1nn(-c2ccc(C(=O)NCCOCCOCCNc3cccc4c3C(=O)N(C3CCC(=O)NC3=O)C4=O)cc2)cc1NC(=O)c1coc(-c2ccnc(NCC(F)(F)F)c2)n1 (centres unmarked)	A (>50% degradation)
CN(CCCCCCCCCc1cccc2c1C(=O)N(C1CCC(=O)NC1=O)C2=O)C(=O)c1ccc(-n2cc(NC(=O)c3coc(-c4ccnc(NCC5CC5)c4)n3)c(C(N)=O)n2)cc1 (centres unmarked)	C (<20% degradation)
NC(=O)c1nn(-c2ccc(CNCCOCCOCCOCCOCCCc3cccc4c3C(=O)N(C3CCC(=O)NC3=O)C4=O)cc2)cc1NC(=O)c1coc(-c2ccnc(NCC(F)(F)F)c2)n1 (centres unmarked)	C (<20% degradation)
NC(=O)c1nn(-c2ccc(C(=O)NCCOCCOCCn3c(=O)n(C4CCC(=O)NC4=O)c4ccccc43)cc2)cc1NC(=O)c1coc(-c2ccnc(NCC(F)(F)F)c2)n1 (centres unmarked)	A (>50% degradation)
CN(CCOCCOCCCc1ccc2c(c1)C(=O)N(C1CCC(=O)NC1=O)C2=O)Cc1ccc(-n2cc(NC(=O)c3coc(-c4ccnc(NCC5CC5)c4)n3)c(C(F)F)n2)cc1 (centres unmarked)	A (>50% degradation)
CN(CCOCCOCCCc1cccc2c1C(=O)N(C1CCC(=O)NC1=O)C2=O)C(=O)c1ccc(-n2cc(NC(=O)c3coc(-c4ccnc(NCC5CC5)c4)n3)c(C(N)=O)n2)cc1 (centres unmarked)	A (>50% degradation)
CN(CCCc1cccc2c1C(=O)N(C1CCC(=O)NC1=O)C2=O)Cc1ccc(-n2cc(NC(=O)c3coc(-c4ccncc4)n3)c(C(F)F)n2)cc1 (centres unmarked)	C (<20% degradation)

Values from patent US10874743B2
